Measured Target: human OX2 receptor (Homo sapiens, UniProt O43614)
Construct: expressed in transfected cells
Sequence (O43614 1-444): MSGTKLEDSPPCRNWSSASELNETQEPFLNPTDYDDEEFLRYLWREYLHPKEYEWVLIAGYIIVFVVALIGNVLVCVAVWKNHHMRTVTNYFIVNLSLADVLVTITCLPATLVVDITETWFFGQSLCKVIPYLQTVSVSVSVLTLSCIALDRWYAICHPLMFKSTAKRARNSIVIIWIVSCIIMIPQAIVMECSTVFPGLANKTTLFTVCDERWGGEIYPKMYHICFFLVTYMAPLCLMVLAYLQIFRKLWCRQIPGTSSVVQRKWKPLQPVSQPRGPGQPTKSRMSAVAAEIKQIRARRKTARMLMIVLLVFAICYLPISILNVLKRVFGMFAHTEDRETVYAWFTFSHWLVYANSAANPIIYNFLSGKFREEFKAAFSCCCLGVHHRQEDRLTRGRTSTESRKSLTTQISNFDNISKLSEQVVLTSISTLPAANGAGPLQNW
Experiment: Measurement of orexin type 2 receptor agonist activity (calcium fluorescence, Fluo-4 AM, FDSS)
Assay type: cell-based
Condition Info: compound at 3 μM; CHO cells forcibly expressing human OX2 receptor; DMSO = 0%, 10 nM orexin A (human) = 100%
Observation Type: OX2R agonist activity (3 μM, %)

{"columns": ["Compound", "Measured Target", "Scale Unit", "Result"],
 "data": [
  ["CS(=O)(=O)N[C@@H]1CN(C2=NOC(c3ncc(Br)cc3-c3c(F)cccc3F)C2)CC1(F)F (stereo partly shown)", "human OX2 receptor (Homo sapiens, UniProt O43614)", "%", 93],
  ["Cc1cnc(C2(C)CC(N3C[C@@H](NS(C)(=O)=O)C(F)(F)C3)=NO2)c(-c2c(F)cc(F)cc2F)c1 (stereo partly shown)", "human OX2 receptor (Homo sapiens, UniProt O43614)", "%", 102],
  ["Cc1cnc([C@@H]2CC(N3CC[C@H](NS(=O)(=O)C(C)F)C3)=NO2)c(-c2c(F)cc(F)cc2F)c1 (stereo partly shown)", "human OX2 receptor (Homo sapiens, UniProt O43614)", "%", 99],
  ["O=S(=O)(CF)N[C@@H]1CN(C2=NOC(c3c(F)cc(F)c(F)c3-c3c(F)cccc3F)C2)CC1(F)F (stereo partly shown)", "human OX2 receptor (Homo sapiens, UniProt O43614)", "%", 107],
  ["CS(=O)(=O)N[C@@H]1CN(C2=NOC(c3c(F)cc(F)c(F)c3-c3c(F)cccc3F)C2)CC1(F)F (stereo partly shown)", "human OX2 receptor (Homo sapiens, UniProt O43614)", "%", 99],
  ["Cc1cnc([C@@H]2CC(N3C[C@@H](NS(=O)(=O)C4CC4)C(F)(F)C3)=NO2)c(-c2c(F)cc(F)cc2F)c1", "human OX2 receptor (Homo sapiens, UniProt O43614)", "%", 104],
  ["Cc1cc(F)c(C2CC(N3C[C@@H](NS(C)(=O)=O)C(F)(F)C3)=NO2)c(-c2ncc(F)cc2F)c1 (stereo partly shown)", "human OX2 receptor (Homo sapiens, UniProt O43614)", "%", 102]
]}

----------
Measured Target: human OX2 receptor (Homo sapiens)
Construct: expressed in transfected cells
Experiment: Measurement of orexin type 2 receptor agonist activity (calcium fluorescence, Fluo-4 AM, FDSS)
Type: cell-based
Condition Info: compound at 3 μM; CHO cells forcibly expressing human OX2 receptor; DMSO = 0%, 10 nM orexin A (human) = 100%
Parameter OX2R agonist activity (3 μM, %): see the listing below.

{"columns": ["Molecule", "OX2R agonist activity (3 μM, %)"],
 "data": [
  ["CN(C)S(=O)(=O)N[C@@H]1CN(C2=NOC(c3ncc(Cl)cc3-c3c(F)cccc3F)C2)C[C@@H]1F (stereo partly shown) [Example 121]", "98%"],
  ["Cc1cnc([C@@H]2CC(N3C[C@@H](F)[C@H](NS(=O)(=O)N(C)C)C3)=NO2)c(-c2c(F)cccc2F)c1 [Example 78]", "102%"],
  ["COc1cccc(F)c1-c1cc(C)cc(F)c1C1CC(N2C[C@@H](NS(C)(=O)=O)C(F)(F)C2)=NO1 (stereo partly shown) [Example 175]", "112%"],
  ["Cc1cnc([C@@H]2CC(N3CC[C@H](NS(=O)(=O)CF)C3)=NO2)c(-c2c(F)cc(F)cc2F)c1 [Example 56]", "92%"],
  ["CCS(=O)(=O)N[C@@H]1CN(C2=NOC(c3ncc(Cl)cc3-c3c(F)cccc3F)C2)C[C@@H]1F (stereo partly shown) [Example 133]", "107%"],
  ["CCS(=O)(=O)N[C@H]1CCN(C2=NOC(c3cc(C(F)(F)F)nn3-c3c(F)cccc3F)C2)C1 (stereo partly shown) [Example 9]", "13%"],
  ["CCS(=O)(=O)NC[C@@H]1CCCN1C1=NOC(c2ncc(C)cc2-c2c(F)cccc2F)C1 (stereo partly shown) [Example 26]", "42%"],
  ["Cc1cnc([C@@H]2CC(N3C[C@H](F)[C@H](NS(=O)(=O)C4CC4)C3)=NO2)c(-c2c(F)cc(F)cc2F)c1 [Example 97]", "103%"],
  ["Cc1cc(F)c(C2CC(N3C[C@@H](NS(C)(=O)=O)C(F)(F)C3)=NO2)c(-c2ncccc2F)c1 (stereo partly shown) [Example 176]", "109%"],
  ["Cc1ccc(C2CC(N3C[C@H](F)[C@H](NS(=O)(=O)N(C)C)C3)=NO2)c(-c2ncc(F)cc2F)c1 (stereo partly shown) [Example 125]", "104%"],
  ["Cc1cnc([C@@H]2CC(N3CC[C@H](NS(=O)(=O)C(F)F)C3)=NO2)c(-c2c(F)cccc2F)c1 [Example 37]", "103%"],
  ["CS(=O)(=O)N[C@H]1CCN(C2=NOC(CF)(c3ncc(F)cc3-c3c(F)cccc3F)C2)C1 (stereo partly shown) [Example 87]", "104%"],
  ["CCS(=O)(=O)N[C@@H]1CN(C2=NOC(c3ncc(Cl)cc3-c3c(F)cccc3F)C2)CC1(F)F (stereo partly shown) [Example 143]", "109%"],
  ["C[C@]1(F)CN(C2=NOC(c3c(F)cc(F)cc3-c3c(F)cccc3F)C2)C[C@H]1NS(C)(=O)=O (single isomer, unassigned) [Example 164]", "97%"],
  ["CS(=O)(=O)N[C@@H]1CN(C2=NOC(c3ncc(Cl)cc3-c3c(F)cc(F)cc3F)C2)C[C@@H]1F (stereo partly shown) [Example 112]", "98%"],
  ["CCS(=O)(=O)N[C@H]1CCN(C2=NOC(c3ccc(C)cc3-c3c(F)cccc3F)C2)C1 (stereo partly shown) [Example 8]", "104%"],
  ["Cc1cnc([C@@H]2CC(N3C[C@@H](C)[C@H](NS(C)(=O)=O)C3)=NO2)c(-c2c(F)cccc2F)c1 (single isomer, unassigned) [Example 71]", "108%"],
  ["Cc1cnc(C2CC(O[C@H]3C[C@@H](NS(C)(=O)=O)C3)=NO2)c(-c2c(F)cccc2F)c1 (stereo partly shown) [Example 20]", "65%"],
  ["Cc1cnc(C2(CF)CC(N3C[C@H](F)[C@H](NS(C)(=O)=O)C3)=NO2)c(-c2c(F)cccc2F)c1 (stereo partly shown) [Example 86]", "95%"],
  ["CN(C)S(=O)(=O)N[C@@H]1CN(C2=NOC(c3ccc(Cl)cc3-c3ncc(F)cc3F)C2)C[C@@H]1F (stereo partly shown) [Example 123]", "100%"],
  ["Cc1cnc([C@@H]2CC(N3C[C@H](F)[C@H](NS(=O)(=O)C4(F)CC4)C3)=NO2)c(-c2c(F)cccc2F)c1 (single isomer, unassigned) [Example 117]", "105%"],
  ["O=S(=O)(N[C@H]1CCN(C2=NOC(CF)(c3ncc(F)cc3-c3c(F)cccc3F)C2)C1)C1(F)CC1 (stereo partly shown) [Example 89]", "93%"],
  ["O=S(=O)(CF)N[C@@H]1CN(C2=NOC(c3c(F)cccc3-c3c(F)cccc3F)C2)CC1(F)F (stereo partly shown) [Example 170]", "102%"],
  ["CS(=O)(=O)N[C@@H]1CN(C2=NOC(CF)(c3ncccc3-c3c(F)cc(F)cc3F)C2)CC1(F)F (stereo partly shown) [Example 157]", "92%"],
  ["CN(C)S(=O)(=O)N[C@@H]1CN(C2=NOC(c3ncc(F)cc3-c3c(F)cc(F)cc3F)C2)C[C@@H]1F (stereo partly shown) [Example 120]", "102%"],
  ["Cc1cnc([C@@H]2CC(N3C[C@@H](NS(=O)(=O)CF)C(F)(F)C3)=NO2)c(-c2c(F)cc(F)cc2F)c1 [Example 58]", "103%"],
  ["CS(=O)(=O)N[C@@H]1CN(C2=NOC(c3ncc(F)cc3-c3c(F)cccc3F)C2)CC1(F)F (stereo partly shown) [Example 69]", "95%"],
  ["CCS(=O)(=O)N[C@@H]1CN(C2=NO[C@H](c3ncc(C)cc3-c3c(F)cc(F)cc3F)C2)CC1(F)F [Example 47]", "93%"]
]}
